experiment: 14C assay with IPTG-induced recombinant E. coli cells (14CO2 capture from [14C]-carboxyl-labeled dicamba); conditions: IPTG-induced recombinant E. coli cells; [14C]-carboxyl-labeled dicamba; 14CO2 capture

molecule	Dicamba Decarboxylase Activity
30 (protein, Enterobacter aerogenes) MARGKIALEEHVSTPENNRLWDSTGEANRNGSEYMQDVERRLLDRSIQLEEMAQRNIDHVILSLTSPGAQSILDKAKAVSFARDTNDFIVDNYVKPNPDKFSAFATLALQNPEAAAEELERAVKKLGMKGALINGYTNVKDSEHGLYLDDESMLVFWDKVNELNVPVYLHPREPLEGPARGIYTGYESLIGSAWGFAQETAVHAIRLMMSGLFDRYPNLNLVLGHLGEGLVHMLPRTQHRLYRQRFGCGLGKAEKPLMHYLQNNFIVTTSGHFNTHSLNNAIEVMGADRVMFSVDYPYEDIHQACDWFDPLEMDEGLKEKIAWGNASRVFNIK	High
82 (protein, listed as Rhodopseudomonas palustris) MAQNETPVIAIEEHYWDPEMVARFPAGENASPFSTLLTELGDVRLRAMDEAGIDVQVLSHGAPAAQKLPPDVAPELTRRVNDRLAEACARFPNRFAAFAALPTPAPEAAARELERCVRDLGFKGAMIHGLTNGLFIDDKRFWPIFEVAEKLDVPIYLHPSVPHADVTRYYYDDYAREFPTVIRPAWGFTVETATQAIRLILSRALESYPRLQIILGHLGETLPFLLWRINQALARPGQTPLDFRKQFCDHFHVTTSGFFSTPALICTMLELGIDRIMFAVDYPYVVNRDGTDWVQQLQISPDDKRKLVGGNARRLLKL	Low
